Sourced from patent US9969709B2

// response vs control in vivo at 5 mg/kg lookup, one value per entry
Tested on: ICR mice
METHOD_DESCRIPTION: Test of increase in fecal protein concentration using mice
Format: in vivo, mouse
RUN_PARAMETERS: Mus musculus, po, 9 h, 5 mg/kg oral, male ICR mice, feces collected 3 to 9 hours after feeding started, control group = 1; read-out: Fecal protein, Folds (vs. control)
OBSERVED_PROPERTY: response vs control in vivo at 5 mg/kg (%)

> print(dat)
                                    molecule                       observed.property  result.units  result.number
 1  N=C(N)Nc1ccc(C(=O)Oc2ccc3c(c2)CCC(C(=O)N(CC(=O)O)[C@@H](Cc2ccccc2)C(=O)O)C3)cc1 (stereo partly shown)  response vs control in vivo at 5 mg/kg             %            151
 2  N=C(N)Nc1ccc(C(=O)Oc2ccc3cc(C(=O)N(CC(=O)O)Cc4csc(C(=O)O)c4)sc3c2)cc1  response vs control in vivo at 5 mg/kg             %            164
 3  N=C(N)Nc1ccc(C(=O)Oc2ccc3c(c2)CCC3CC(=O)N[C@@H](Cc2ccc(C(=O)O)cc2)C(=O)O)cc1 (stereo partly shown)  response vs control in vivo at 5 mg/kg             %            164
 4  N=C(N)Nc1ccc(C(=O)Oc2ccc3c(C(=O)N(CC(=O)O)Cc4ccc(CC(=O)O)cc4)csc3c2)cc1  response vs control in vivo at 5 mg/kg             %            253
 5  N=C(N)Nc1ccc(C(=O)Oc2ccc3c(c2)CCC(C(=O)N[C@@H](Cc2ccc(C(=O)O)cc2)C(=O)O)C3)cc1 (stereo partly shown)  response vs control in vivo at 5 mg/kg             %            159
 6  N=C(N)Nc1ccc(C(=O)Oc2ccc3c(c2)CCCC3CC(=O)N(CC(=O)O)Cc2ccc3sc(C(=O)O)cc3c2)cc1 (stereo not shown)  response vs control in vivo at 5 mg/kg             %            135
 7  N=C(N)Nc1ccc(C(=O)Oc2ccc3c(c2)CCC(C(=O)N(CCC(=O)O)Cc2csc(C(=O)O)c2)C3)cc1 (stereo not shown)  response vs control in vivo at 5 mg/kg             %            138
 8  C[C@H](C(=O)O)N(Cc1csc(C(=O)O)c1)C(=O)CC1CCCc2cc(OC(=O)c3ccc(NC(=N)N)cc3)ccc21 (single isomer, unassigned) [Example 7]  response vs control in vivo at 5 mg/kg             %            183
 9  N=C(N)Nc1ccc(C(=O)Oc2ccc3c(c2)CCC(C(=O)N(CC(=O)O)Cc2cccc(C(=O)O)c2)C3)cc1 (stereo not shown)  response vs control in vivo at 5 mg/kg             %            218
10  N=C(N)Nc1ccc(C(=O)Oc2ccc3c(C(=O)N(CC(=O)O)Cc4ccc5sc(C(=O)O)cc5c4)csc3c2)cc1  response vs control in vivo at 5 mg/kg             %            190
11  N=C(N)Nc1ccc(C(=O)Oc2ccc3c(c2)CCC(C(=O)N(CC(=O)O)Cc2ccc4sc(C(=O)O)cc4c2)C3)cc1 (stereo not shown)  response vs control in vivo at 5 mg/kg             %            151
12  N=C(N)Nc1ccc(C(=O)Oc2ccc3cc(C(=O)N(CC(=O)O)Cc4ccc5sc(C(=O)O)cc5c4)ccc3c2)cc1  response vs control in vivo at 5 mg/kg             %            139
13  C[C@H](C(=O)O)N(Cc1csc(C(=O)O)c1)C(=O)C1CCc2cc(OC(=O)c3ccc(NC(=N)N)cc3)ccc2C1 (stereo partly shown)  response vs control in vivo at 5 mg/kg             %            251
